# System: SF-268 CNS
# test details: NCI-60 one-dose screen, 48 h (100 = growth as untreated, 0 = no growth, -100 = all killed)
# experimental parameters: 10 µM unless noted
About 83,000 compounds went through this panel and 20% of them were active in at least one assay; those are over-represented in the sample as a whole.
value type: growth (%)

- COc1cc(-n2cc(-c3cc(O)c(C/C=C(\C)CCC=C(C)C)c(O)c3)nn2)cc2c1O[C@]1(C)CC[C@@H](O)C(C)(C)[C@H]1C2: 20.9
- COc1cccc(CNc2ncnc3c2ncn3C2OC(CO)C(O)C2O)c1O (centres undefined): 22.8
- O=C1/C(=C/c2ccc(Cl)cc2)COc2ccc(O)c(O)c21: -0.809
- CSc1nnc(-c2cnn3c2NC(c2ccccc2)C3)n1-c1ccc(C(F)(F)F)cc1 (centres undefined): 65.1
- CN(C)CCCn1c2c(c3ncccc3c1=O)C(=O)c1ccccc1-2: 42.3
- O=C1Nc2ccccc2/C1=C\c1nc(-c2ccccc2)n2ccccc12: 93.9
- O=C(Nc1nn(-c2ccc(Cl)cc2Cl)nc1-c1ccccc1)c1ccccc1: 107
- COc1cc(-c2nc(SCC(C)C)nc(Nc3cccc4ccccc34)c2C#N)cc(OC)c1OC: 92.6
- Cc1ccc(C(C(N)=O)C(C(N)=O)c2ccccc2)cc1 (centres undefined): 104
- Cn1c(=O)c2c(nc(NC3=NS(=O)(=O)c4ccccc43)n2CC(=O)N2CCc3ccccc32)n(C)c1=O: 97.5
- Cc1ccc(Sc2nnc(/N=C3\C(=O)Nc4ccccc43)s2)cc1: 98.9
- CS(=O)(=O)Nc1cc(-c2ccc3ncnc(Nc4c(Cl)ccc5c4OCO5)c3c2)cnc1Cl: -21.5
- CCN1CC(=O)N(/N=C2\C(=O)Nc3ccccc32)C1=S: 103
- COc1ccc2[nH]cc(-c3nc(-c4cn(C)c5c(Cl)nccc45)cs3)c2c1: 73
- O=[N+]([O-])c1ccc(S(=O)(=O)N2CCN(C3=NS(=O)(=O)c4ccccc4N3c3ccccc3)CC2)cc1: 101
- CCN(CC)CCOc1ccc(-c2c(-c3ccccc3)c(=O)oc3ccccc23)cc1: 87.4
- COC1C[C@H](O[C@@H]2C[C@H](O[C@@H]3C[C@H](O[C@@H]4C(=O)c5c(cc6cc(O[C@H]7C[C@@H](O[C@H]8C[C@@H](O)[C@H](O)C(C)O8)[C@H](O)C(C)O7)c(C)c(O)c6c5O)C[C@H]4C(OC)C(=O)[C@@H](O)[C@@H](C)O)OC(C)[C@H]3O)OC(C)[C@@H]2O)OC(C)[C@@H]1O (some centres undefined): 18.3
- CC1(c2ccccc2O)NN=C(/N=C/c2cccc([N+](=O)[O-])c2)N1C(Cc1c[nH]c2ccccc12)C(=O)O (centres undefined): 95.7
- Cc1ccc(Sc2oc(-c3ccc(C)cc3)nc2[P+](c2ccccc2)(c2ccccc2)c2ccccc2)cc1: 10.9
- CCCCNc1ccc(C#N)c(OCCN(CC)CC)c1: 103
- COC(=O)c1cc(-c2ccc(S(C)(=O)=O)cc2)[nH]c1N/N=C/c1c(Cl)cccc1Cl: 37.1
- COC(=O)/C=C1/SC(=Nc2ccc(C)cc2)N(CCc2c[nH]c3ccc(O)cc23)C1=O: 56.3
- COc1cc2oc(-c3cccc(NC(=O)c4cccc(Br)c4)c3)cc(=O)c2c(OC)c1OC: 59.7
- Cc1nnc(-n2c(O)cc(=O)n(-c3ccccc3)c2=S)nc1/C=C/c1ccc(N(C)C)cc1: 78.4
- CC(C)c1ccc(NC(=O)Nc2ccc(NC(=O)CCCC(=O)NOCc3ccccc3)cc2)cc1: 95.9
- O=Nc1c(-c2c(O)[nH]c3ncccc23)[nH]c2ccccc12: 66.2
- COc1cc(OC)cc(C2=C3CC[C@@H]4[C@H](CC[C@]5(C)C(=O)CC[C@@H]45)C3=CC3C(O)c4cccnc4N4C(=O)COC234)c1 (some centres undefined): 92.8
- O=C1c2c(c3c4ccccc4[nH]c3c3ccc4ccccc4c23)C(=O)N1CCN1CCCCC1: 39.6
- CC1=C(Nc2ccc(N3CCN(C)CC3)cc2)C(=O)c2cncnc2C1=O: 102

====

# Tested on: HCT-116 colon
# test details: NCI-60 one-dose screen, 48 h (100 = growth as untreated, 0 = no growth, -100 = all killed)
# experimental parameters: 10 µM unless noted
Compounds without any hit were thinned out: in the full panel of roughly 83,000, 20% have a hit.
Measured growth accompanies every entry in the list below.
value type: growth (%)

* CC(C)(C)c1cc(-c2nc3ccc(N4CCN(S(C)(=O)=O)CC4)cc3[nH]2)cc(C(C)(C)C)c1O | 81.7
* CC(=O)Cc1nsc(NC(=O)c2cc(-c3cc(Cl)cc(Cl)c3)oc2C)n1 | 107
* CCCCCCCCCCCCCCCCCCOc1ccccc1CC(=O)NCC[N+]1(C)CCCC1 | 55.9
* O=C(O)/C(=C\c1ccc(Cl)cc1)c1ccc(Cl)cc1 | 98.1
* C=CCc1c2c(c(OC)c3ccoc13)C(=O)/C(=C/c1ccccc1OC)O2 | 21.4
* COc1cc(CNS(=O)(=O)c2ccc(C)cc2)ccc1OCc1cn(-c2ccc(F)cc2)nn1 | 83.6

====

Measured growth accompanies every entry in the list below.
# Test system: HOP-62 NSCLC
# test details: NCI-60 one-dose screen, 48 h (100 = growth as untreated, 0 = no growth, -100 = all killed)
# experimental parameters: 10 µM unless noted
The panel holds about 83,000 compounds, 20% with a hit somewhere; the sample as a whole holds those more often.
value type: growth (%)

- Cc1noc(C)c1C(=O)OCc1coc2ccccc2c1=O: 87.5
- COc1cc(C(=O)n2nc(N3CCN(C)CC3)c3cc(N)ccc32)cc(OC)c1OC: 32.5
- N#C/C(=C/c1ccc([N+](=O)[O-])cc1)n1nnc2cc(F)c(F)cc21: 96.6
- COc1ccc(/C=N/NC(=O)CCN2c3ccccc3Sc3ccccc32)cc1: 75.3
- CN(C)CC(=O)Nc1ccc2ncnc(Nc3ccc(Oc4cccc(C(F)(F)F)c4)c(Cl)c3)c2c1: 76.5
- O=S(=O)(NCCCNc1nccc(-c2c(-c3ccc(F)c(O)c3)nc3occn23)n1)c1ccccc1: 102
- COc1cccc(/C=C/C(=O)c2cc3c(N)c(C(=O)Nc4ccccc4)sc3nc2C)c1: 13.6
- Brc1ccc(-n2cc(-c3nn[nH]n3)c(-c3cccs3)n2)cc1: 91.3
- COc1ccc2[nH]cc(-c3nc(-c4cn(C)c5c(Cl)nccc45)cs3)c2c1: 56.6

====

Measured growth accompanies every entry in the list below.
# Tested on: SK-MEL-2 melanoma
# test details: NCI-60 one-dose screen, 48 h (100 = growth as untreated, 0 = no growth, -100 = all killed)
# experimental parameters: 10 µM unless noted
The panel holds about 83,000 compounds, 20% with a hit somewhere; the sample as a whole holds those more often.
value type: growth (%)

- CCOC(=O)c1c(C)nc2c(c1N)CC(=O)N2Cc1cc(F)cc(Cl)c1: 118
- CCOC(=O)c1cc(-c2ccc([N+](=O)[O-])cc2)n(-c2ccc(C(=O)O)c(O)c2)c1C: 53.8
- N#C/C(=C\c1ccc(Br)cc1)n1nnc2ccc(F)cc21: 13.8
- Cc1cc2c(O)c(-c3cc(Cl)ccc3Cl)c3sc(=O)oc3c2cc1C: 74
- COc1ccc(-c2nc3c(c(-c4ccccc4)nn3-c3ccccc3)c(-c3ccc(N4CCOCC4)cc3)c2C#N)cc1: 106
- C/C(=C(/c1ccc(Cl)cc1)c1ccc(OCCN2CCCC2)cc1)c1ccc(Cl)cc1: 93.9
- CCC(C)N(c1ccc(Cl)cc1)c1nc(-c2ccc(Br)cc2)cs1 (stereo not drawn): 105
- OB(O)c1cccc(-c2nc3ccc4[nH]ncc4c3c3c2CCCC3)c1: 81.1
- O=S(=O)(Nc1ccccc1)c1ccc(C2CC3(Cl)C(Cl)=C(Cl)C2(Cl)C3(Cl)Cl)cc1 (stereo not drawn): 74.1
- O=C(Nc1ccc(NC(=O)c2cc(=O)[nH]c3ccccc23)cc1)Nc1cccc(C(F)(F)F)c1: 92.5
- Cc1ccc(/C=N/Nc2nc(Nc3ccccc3)nc(-n3nc(C)cc3C)n2)cc1: 32.6
- O=C(O)[C@@H]1c2ccccc2-c2ccccc2[C@H]1C(=O)O: 123
- Cc1ccc(C(C(N)=O)C(C(N)=O)c2ccccc2)cc1 (stereo not drawn): 105
- O=C(c1ccccc1)C1C(=O)N2C(=S)N(c3ccccc3)C(=O)C2C1c1ccc(Cl)cc1 (stereo not drawn): 99.5
- N#Cc1cccc(-c2c(-c3ccc4ccccc4c3)oc3ccccc3c2=O)c1: 59.1
- CCCCCCCCCCCCCCCCCCOc1ccccc1CC(=O)NCC[N+]1(C)CCCC1: 62.4
- O=C(Cn1c(=O)sc2ccccc21)NNS(=O)(=O)c1ccccc1[N+](=O)[O-]: 103
- O=C1NC(=O)c2c1c1c3ccccc3ccc1c1[nH]c3ccc(Br)cc3c21: 35.4
- Cc1ccc2c3c(c(=O)[nH]c2c1)C1(C(C#N)=C(N)O3)c2cc(Br)ccc2-c2ccc(Br)cc21: 32.6
- CC(C)n1cnc2c(=S)nc[nH]c21: 114
- Cc1cc2c(O)c(-c3cccc(Cl)c3)c3sc(=O)oc3c2cc1C: 37.8
- O=C(CI)NC1Oc2ccccc2-c2oc(=O)c(-c3ccccc3)cc21 (stereo not drawn): -16.4
- COc1ccc(/C(C)=C(/c2ccc(OCCCN(C)C)cc2)c2ccc(OC(=O)Cc3ccccc3)cc2)cc1: 91
- O=C1COCCN1c1ccc(Nc2nc(Cl)nc(OCc3cn(Cc4ccccc4)nn3)n2)cc1: 85.6
- O=C1c2cccnc2C(=O)c2c1c(C(=O)NCCCN1CCCCC1)c1ccccn21: -40.3
- CCOC(=O)c1cn2ncnc(Oc3ccc(NC(=O)NC4CCCCC4)c(Cl)c3)c2c1C: 103
- C/C(=N\NC(=O)c1ccccc1O)c1cccc(/C(C)=N/NC(=O)c2ccccc2O)n1: 95.2
- O=C(O)c1[nH]c(=O)[nH]c(=O)c1[N+](=O)[O-]: 158

From: PubChem BioAssay (NCI)
